Origin of the recorded values: patent US20260116991A1

Molecular target: biotinylated labeled human GPC3 protein (produced in-house) (human, UniProt P51654 25-559, limits assumed, biotinylated (Dojindo, Cat. No. LK03); sites not stated)
Assay: ELISA, biotinylated human GPC3 protein
Measured OD450 at 66.66 nM of individual entries
Write the value in OD450 as a bare number.

hAb005LH3L1b (antibody, human IgG1, V domains shown, Humanized F3.54.12; VH H3 + VL L1b; expressed as human IgG1) VH: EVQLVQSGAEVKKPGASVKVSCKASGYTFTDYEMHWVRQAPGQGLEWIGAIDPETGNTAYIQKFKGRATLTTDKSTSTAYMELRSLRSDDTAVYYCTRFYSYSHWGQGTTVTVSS VL: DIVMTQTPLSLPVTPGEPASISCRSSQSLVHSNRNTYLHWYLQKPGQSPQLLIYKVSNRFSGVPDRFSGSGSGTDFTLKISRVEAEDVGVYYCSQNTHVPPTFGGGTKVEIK ... 1.04
hAb003LH1L1b (antibody, human IgG1, V domains shown, Humanized F2.154.1; VH H1 + VL L1b; expressed as human IgG1) VH: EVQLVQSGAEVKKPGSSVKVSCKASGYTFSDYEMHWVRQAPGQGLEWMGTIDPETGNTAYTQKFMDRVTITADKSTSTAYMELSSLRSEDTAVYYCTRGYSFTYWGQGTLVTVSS VL: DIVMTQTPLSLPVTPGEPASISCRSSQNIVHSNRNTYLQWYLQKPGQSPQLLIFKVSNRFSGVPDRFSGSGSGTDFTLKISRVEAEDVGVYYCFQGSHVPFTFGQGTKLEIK ... 2.65
hAb003LH3L1 (antibody, human IgG1, V domains shown, Humanized F2.154.1; VH H3 + VL L1; expressed as human IgG1) VH: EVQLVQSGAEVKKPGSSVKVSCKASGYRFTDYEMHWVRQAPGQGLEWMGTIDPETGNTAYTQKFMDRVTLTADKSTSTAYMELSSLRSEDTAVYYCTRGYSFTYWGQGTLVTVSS VL: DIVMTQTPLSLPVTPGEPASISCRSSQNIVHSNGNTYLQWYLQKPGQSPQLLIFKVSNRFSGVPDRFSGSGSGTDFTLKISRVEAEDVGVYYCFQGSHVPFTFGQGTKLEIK ... 2.39
hAb005LH3L1 (antibody, human IgG1, V domains shown, Humanized F3.54.12; VH H3 + VL L1; expressed as human IgG1) VH: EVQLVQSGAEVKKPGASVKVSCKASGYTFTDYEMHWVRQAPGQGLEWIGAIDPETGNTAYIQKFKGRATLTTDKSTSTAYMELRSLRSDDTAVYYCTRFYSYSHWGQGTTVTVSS VL: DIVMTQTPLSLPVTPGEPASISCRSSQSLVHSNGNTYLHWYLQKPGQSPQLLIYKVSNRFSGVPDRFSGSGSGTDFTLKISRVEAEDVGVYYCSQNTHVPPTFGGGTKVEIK ... 1.12

Record request: OD450 at 66.66 nM value, item hAb003LH1L1a (antibody, human IgG1, V domains shown, Humanized F2.154.1; VH H1 + VL L1a; expressed as human IgG1) VH: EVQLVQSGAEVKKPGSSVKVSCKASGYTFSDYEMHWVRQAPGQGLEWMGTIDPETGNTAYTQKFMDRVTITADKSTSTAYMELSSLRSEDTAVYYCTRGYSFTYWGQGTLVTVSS VL: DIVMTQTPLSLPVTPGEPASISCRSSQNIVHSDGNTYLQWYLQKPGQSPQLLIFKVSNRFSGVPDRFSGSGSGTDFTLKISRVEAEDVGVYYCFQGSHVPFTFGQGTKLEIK
2.45
